Cited source: patent US20210388087A1

Molecular target: T1, Human CD137 ECD (human)
T1 construct: entry includes C-terminal His-tag and biotin acceptor peptide; also called human CD137 extracellular domain; 4-1BB
T1 sequence (chain, as listed by the source limits assumed): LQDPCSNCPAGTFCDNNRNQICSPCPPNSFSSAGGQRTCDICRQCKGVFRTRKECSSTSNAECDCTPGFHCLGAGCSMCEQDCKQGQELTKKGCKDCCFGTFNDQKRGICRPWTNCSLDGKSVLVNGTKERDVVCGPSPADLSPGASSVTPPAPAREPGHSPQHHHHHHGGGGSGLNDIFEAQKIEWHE
Experiment: Biacore SPR, vs parent H183/L072
Examples of binders with documented fold change of affinity follow.
READOUT_NAME: fold change of affinity

[
  {
    "BINDER": "H183/L072 VL A25Q (antibody, name in Kabat numbering, V domains shown, Dual-Ig) VH: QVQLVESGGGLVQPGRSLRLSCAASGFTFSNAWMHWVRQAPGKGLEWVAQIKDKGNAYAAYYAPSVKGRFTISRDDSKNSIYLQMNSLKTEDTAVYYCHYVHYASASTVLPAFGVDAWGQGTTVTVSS VL: DIVMTQSPLSLPVTPGEPASISCQQSQELVHMNRNTYLHWYQQKPGQAPRLLIYKVSNRFPGVPDRFSGSGSGTDFTLKISRVEAEDVGVYYCAQGTSVPFTFGQGTKLEIK",
    "OBSERVED_VALUE": "0.1 fold"
  },
  {
    "BINDER": "H183/L072 VL V27cT (antibody, name in Kabat numbering, V domains shown, Dual-Ig) VH: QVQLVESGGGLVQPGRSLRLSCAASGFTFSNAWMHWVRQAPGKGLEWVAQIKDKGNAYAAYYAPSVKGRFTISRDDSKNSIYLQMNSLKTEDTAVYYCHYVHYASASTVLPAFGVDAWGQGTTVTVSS VL: DIVMTQSPLSLPVTPGEPASISCQASQELTHMNRNTYLHWYQQKPGQAPRLLIYKVSNRFPGVPDRFSGSGSGTDFTLKISRVEAEDVGVYYCAQGTSVPFTFGQGTKLEIK",
    "OBSERVED_VALUE": "0.7 fold"
  },
  {
    "BINDER": "H183/L072 VL L33Q (antibody, name in Kabat numbering, V domains shown, Dual-Ig) VH: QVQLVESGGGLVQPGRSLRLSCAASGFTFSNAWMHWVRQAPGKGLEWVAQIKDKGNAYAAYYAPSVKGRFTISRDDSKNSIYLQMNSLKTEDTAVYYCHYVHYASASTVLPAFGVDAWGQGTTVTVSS VL: DIVMTQSPLSLPVTPGEPASISCQASQELVHMNRNTYQHWYQQKPGQAPRLLIYKVSNRFPGVPDRFSGSGSGTDFTLKISRVEAEDVGVYYCAQGTSVPFTFGQGTKLEIK",
    "OBSERVED_VALUE": "1.4 fold"
  }
]
